The entries below come with measured pIC50 values attached.
Target: recombinant human Cdc25A (Homo sapiens)
Construct: purchased CycLex CY-1352
Sequence (P30304 1-524): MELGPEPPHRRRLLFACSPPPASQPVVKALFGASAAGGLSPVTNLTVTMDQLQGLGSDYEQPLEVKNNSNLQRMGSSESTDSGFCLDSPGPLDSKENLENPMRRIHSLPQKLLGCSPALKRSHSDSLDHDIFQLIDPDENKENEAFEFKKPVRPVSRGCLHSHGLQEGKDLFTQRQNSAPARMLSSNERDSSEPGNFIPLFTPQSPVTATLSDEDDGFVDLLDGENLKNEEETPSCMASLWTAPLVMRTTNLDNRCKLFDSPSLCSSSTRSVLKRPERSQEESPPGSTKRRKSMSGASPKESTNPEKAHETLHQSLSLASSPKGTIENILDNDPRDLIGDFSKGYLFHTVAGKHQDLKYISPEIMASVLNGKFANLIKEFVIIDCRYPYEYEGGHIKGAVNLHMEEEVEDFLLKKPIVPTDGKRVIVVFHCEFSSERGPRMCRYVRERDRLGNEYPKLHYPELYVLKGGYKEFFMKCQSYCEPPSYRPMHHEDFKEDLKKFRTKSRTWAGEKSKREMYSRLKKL
Assay: Cdc25A fluorometric phosphatase assay (OMFP substrate)
Format: biochemical
Recall that pIC50 is obtained by taking minus log10 of the concentration measured in molar.

Examples from the recorded data:
# COMPOUND, VALUE TYPE, EXPERIMENTAL VALUE
measured = [
    ("CC1=CC(=O)c2ccccc2C1=O [menadione, reference compound]", "pIC50", 5.39),
    ("CC(=O)O[C@H](CC=C(C)C)C1=CC(=O)c2c(O)ccc(O)c2C1=O", "pIC50", 5.41),
    ("CC(C)=CCCC1=CC(=O)c2c(O)ccc(O)c2C1=O", "pIC50", 5.49),
]

The record that follows has no pIC50 shown yet.
Request the reported pIC50 associated with CC(C)=CC[C@@H](O)C1=CC(=O)c2c(O)ccc(O)c2C1=O
5.67

---

molecular target: recombinant human Cdc25C (Homo sapiens); construct: purchased CycLex CY-1354; assay: Cdc25C fluorometric phosphatase assay (OMFP substrate); format: biochemical
Sequence (P30307 whole entry): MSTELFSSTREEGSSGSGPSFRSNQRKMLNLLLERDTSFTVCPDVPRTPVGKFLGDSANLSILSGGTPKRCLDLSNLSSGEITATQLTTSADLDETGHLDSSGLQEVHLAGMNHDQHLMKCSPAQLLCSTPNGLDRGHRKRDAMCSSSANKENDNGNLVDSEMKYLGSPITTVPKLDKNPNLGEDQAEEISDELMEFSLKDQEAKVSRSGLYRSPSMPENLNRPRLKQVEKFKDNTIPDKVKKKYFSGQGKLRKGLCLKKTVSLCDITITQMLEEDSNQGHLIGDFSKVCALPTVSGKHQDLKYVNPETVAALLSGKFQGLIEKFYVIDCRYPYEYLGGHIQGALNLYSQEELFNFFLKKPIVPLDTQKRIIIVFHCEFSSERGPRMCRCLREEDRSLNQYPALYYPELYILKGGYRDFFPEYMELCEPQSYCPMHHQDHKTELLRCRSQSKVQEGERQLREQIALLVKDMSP
VALUE TYPE: pIC50
Recall that pIC50 is obtained by taking minus log10 of the concentration measured in molar.

Examples from the recorded data:
# COMPOUND, EXPERIMENTAL VALUE
measured = [
    ("CC(=O)O[C@H](CC=C(C)C)C1=CC(=O)c2c(O)ccc(O)c2C1=O", 5.33),
    ("CC1=CC(=O)c2ccccc2C1=O [menadione, reference compound]", 5.29),
    ("CC(C)=CC[C@@H](O)C1=CC(=O)c2c(O)ccc(O)c2C1=O", 5.32),
]

The record that follows has no pIC50 shown yet.
Request the reported pIC50 associated with CC(C)=CCCC1=CC(=O)c2c(O)ccc(O)c2C1=O
5.20

---

Target: recombinant human Cdc25A (Homo sapiens, UniProt P30304)
Construct: purchased CycLex CY-1352
Sequence (P30304 1-524): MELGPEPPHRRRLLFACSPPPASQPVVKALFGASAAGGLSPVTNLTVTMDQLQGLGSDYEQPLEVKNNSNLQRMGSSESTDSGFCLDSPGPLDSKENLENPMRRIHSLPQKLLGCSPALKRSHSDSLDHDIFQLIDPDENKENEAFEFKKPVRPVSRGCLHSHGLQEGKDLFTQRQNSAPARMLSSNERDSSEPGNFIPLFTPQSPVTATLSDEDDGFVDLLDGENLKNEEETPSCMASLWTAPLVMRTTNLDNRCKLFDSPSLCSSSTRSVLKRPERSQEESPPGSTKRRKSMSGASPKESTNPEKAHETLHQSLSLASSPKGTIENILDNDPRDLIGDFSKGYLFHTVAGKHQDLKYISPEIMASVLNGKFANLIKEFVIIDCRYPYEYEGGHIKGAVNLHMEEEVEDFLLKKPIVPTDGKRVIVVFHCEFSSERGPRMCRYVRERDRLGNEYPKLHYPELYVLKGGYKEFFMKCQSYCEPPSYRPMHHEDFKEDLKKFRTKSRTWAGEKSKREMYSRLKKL
Test: Cdc25A fluorometric phosphatase assay (OMFP substrate)
Format: biochemical
Details: recombinant human phosphatase, OMFP substrate, mean ± S.E.M.; read-out: IC50 Cdc25A
VALUE TYPE: pIC50
Recall that pIC50 is obtained by taking minus log10 of the concentration measured in molar.

Examples from the recorded data:
# COMPOUND, SUBJECT OF TEST, pIC50
measured = [
    ("CC(C)=CC[C@@H](OC(=O)C(C)C)C1=CC(=O)c2c(O)ccc(O)c2C1=O [Isobutylshikonin]", "recombinant human Cdc25A (Homo sapiens, UniProt P30304)", 5.17),
    ("CC(C)=CCC(OC(=O)CC(C)C)C1=CC(=O)c2c(O)ccc(O)c2C1=O (stereo not shown) [Isovalerylshikonin]", "recombinant human Cdc25A (Homo sapiens, UniProt P30304)", 5.02),
    ("CC(C)=CCC(OC(=O)C=C(C)C)C1=CC(=O)c2c(O)ccc(O)c2C1=O (stereo not drawn) [β,β-Dimethylacrylshikonin]", "recombinant human Cdc25A (Homo sapiens, UniProt P30304)", 5.33),
]

Quick check: pIC50 on recombinant human Cdc25A (Homo sapiens, UniProt P30304), item CCC(C)C(=O)O[C@H](CC=C(C)C)C1=CC(=O)c2c(O)ccc(O)c2C1=O (stereo partly drawn) [α-Methyl-η-butylshikonin] ?
4.95

---

biological target: recombinant human Cdc25B (Homo sapiens, UniProt P30305); construct: purchased CycLex CY-1353; assay: Cdc25B fluorometric phosphatase assay (OMFP substrate); format: biochemical; details: recombinant human phosphatase, OMFP substrate, mean ± S.E.M.; read-out: IC50 Cdc25B
Sequence (P30305 whole entry): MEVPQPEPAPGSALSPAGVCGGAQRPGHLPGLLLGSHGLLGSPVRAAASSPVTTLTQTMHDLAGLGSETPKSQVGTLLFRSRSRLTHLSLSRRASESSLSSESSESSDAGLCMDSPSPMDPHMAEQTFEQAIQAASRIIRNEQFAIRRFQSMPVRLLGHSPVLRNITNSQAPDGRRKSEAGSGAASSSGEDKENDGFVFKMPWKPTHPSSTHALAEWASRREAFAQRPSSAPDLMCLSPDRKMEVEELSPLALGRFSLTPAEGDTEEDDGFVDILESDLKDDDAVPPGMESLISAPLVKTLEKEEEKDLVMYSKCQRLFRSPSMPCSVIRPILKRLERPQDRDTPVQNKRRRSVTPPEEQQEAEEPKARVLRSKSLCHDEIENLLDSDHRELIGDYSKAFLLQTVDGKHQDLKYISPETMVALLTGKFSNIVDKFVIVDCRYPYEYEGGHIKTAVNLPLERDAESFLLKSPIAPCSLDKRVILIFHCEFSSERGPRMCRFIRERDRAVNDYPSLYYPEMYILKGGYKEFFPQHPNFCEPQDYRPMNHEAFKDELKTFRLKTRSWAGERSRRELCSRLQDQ
The entries below come with measured IC50 values attached.
Give the value, in units of µM, as a plain number.

# COMPOUND, IC50 [µM]
data = [
    ("CC(C)=CCC(OC(=O)C=C(C)C)C1=CC(=O)c2c(O)ccc(O)c2C1=O (centres unmarked)", 8.56),
]

Request the reported IC50 associated with CCC(C)C(=O)O[C@H](CC=C(C)C)C1=CC(=O)c2c(O)ccc(O)c2C1=O (some centres unmarked)
14.3

---

test system: tsFT210 cells; experiment: MTT anti-proliferation assay, tsFT210; conditions: Mus musculus, tsFT210, 48 h, read-out: IC50 tsFT210
VALUE TYPE: IC50 (µM)
Give the value, in units of µM, as a plain number.

# COMPOUND, UNITS TEXT, EXPERIMENTAL VALUE
records = [
    ("COc1cccc2c1C(=O)c1c(O)c3c(c(O)c1C2=O)C[C@@](O)(C(=O)CO)C[C@@H]3O[C@H]1C[C@H](N)[C@H](O)[C@H](C)O1 [Doxorubicin, reference compound]", "µM", 0.56),
]

The record that follows has no IC50 shown yet.
Request the reported IC50 associated with CC(C)=CC[C@@H](O)C1=CC(=O)c2c(O)ccc(O)c2C1=O
8.97

---

The entries below come with measured IC50 values attached.
test system: HeLa cells; experiment: MTT anti-proliferation assay, HeLa; conditions: Homo sapiens, 48 h, read-out: IC50 HeLa
Give the value, in units of µM, as a plain number.

# COMPOUND, VALUE TYPE, UNITS TEXT, EXPERIMENTAL VALUE
data = [
    ("CC(C)=CC[C@@H](O)C1=CC(=O)c2c(O)ccc(O)c2C1=O", "IC50", "µM", 9.56),
]

The record that follows has no IC50 shown yet.
Request the reported IC50 associated with COc1cccc2c1C(=O)c1c(O)c3c(c(O)c1C2=O)C[C@@](O)(C(=O)CO)C[C@@H]3O[C@H]1C[C@H](N)[C@H](O)[C@H](C)O1 [Doxorubicin, reference compound]
0.43
